measured-on: Histone acetyltransferase p300 (Homo sapiens, UniProt Q09472)
Sequence (Q09472 whole entry): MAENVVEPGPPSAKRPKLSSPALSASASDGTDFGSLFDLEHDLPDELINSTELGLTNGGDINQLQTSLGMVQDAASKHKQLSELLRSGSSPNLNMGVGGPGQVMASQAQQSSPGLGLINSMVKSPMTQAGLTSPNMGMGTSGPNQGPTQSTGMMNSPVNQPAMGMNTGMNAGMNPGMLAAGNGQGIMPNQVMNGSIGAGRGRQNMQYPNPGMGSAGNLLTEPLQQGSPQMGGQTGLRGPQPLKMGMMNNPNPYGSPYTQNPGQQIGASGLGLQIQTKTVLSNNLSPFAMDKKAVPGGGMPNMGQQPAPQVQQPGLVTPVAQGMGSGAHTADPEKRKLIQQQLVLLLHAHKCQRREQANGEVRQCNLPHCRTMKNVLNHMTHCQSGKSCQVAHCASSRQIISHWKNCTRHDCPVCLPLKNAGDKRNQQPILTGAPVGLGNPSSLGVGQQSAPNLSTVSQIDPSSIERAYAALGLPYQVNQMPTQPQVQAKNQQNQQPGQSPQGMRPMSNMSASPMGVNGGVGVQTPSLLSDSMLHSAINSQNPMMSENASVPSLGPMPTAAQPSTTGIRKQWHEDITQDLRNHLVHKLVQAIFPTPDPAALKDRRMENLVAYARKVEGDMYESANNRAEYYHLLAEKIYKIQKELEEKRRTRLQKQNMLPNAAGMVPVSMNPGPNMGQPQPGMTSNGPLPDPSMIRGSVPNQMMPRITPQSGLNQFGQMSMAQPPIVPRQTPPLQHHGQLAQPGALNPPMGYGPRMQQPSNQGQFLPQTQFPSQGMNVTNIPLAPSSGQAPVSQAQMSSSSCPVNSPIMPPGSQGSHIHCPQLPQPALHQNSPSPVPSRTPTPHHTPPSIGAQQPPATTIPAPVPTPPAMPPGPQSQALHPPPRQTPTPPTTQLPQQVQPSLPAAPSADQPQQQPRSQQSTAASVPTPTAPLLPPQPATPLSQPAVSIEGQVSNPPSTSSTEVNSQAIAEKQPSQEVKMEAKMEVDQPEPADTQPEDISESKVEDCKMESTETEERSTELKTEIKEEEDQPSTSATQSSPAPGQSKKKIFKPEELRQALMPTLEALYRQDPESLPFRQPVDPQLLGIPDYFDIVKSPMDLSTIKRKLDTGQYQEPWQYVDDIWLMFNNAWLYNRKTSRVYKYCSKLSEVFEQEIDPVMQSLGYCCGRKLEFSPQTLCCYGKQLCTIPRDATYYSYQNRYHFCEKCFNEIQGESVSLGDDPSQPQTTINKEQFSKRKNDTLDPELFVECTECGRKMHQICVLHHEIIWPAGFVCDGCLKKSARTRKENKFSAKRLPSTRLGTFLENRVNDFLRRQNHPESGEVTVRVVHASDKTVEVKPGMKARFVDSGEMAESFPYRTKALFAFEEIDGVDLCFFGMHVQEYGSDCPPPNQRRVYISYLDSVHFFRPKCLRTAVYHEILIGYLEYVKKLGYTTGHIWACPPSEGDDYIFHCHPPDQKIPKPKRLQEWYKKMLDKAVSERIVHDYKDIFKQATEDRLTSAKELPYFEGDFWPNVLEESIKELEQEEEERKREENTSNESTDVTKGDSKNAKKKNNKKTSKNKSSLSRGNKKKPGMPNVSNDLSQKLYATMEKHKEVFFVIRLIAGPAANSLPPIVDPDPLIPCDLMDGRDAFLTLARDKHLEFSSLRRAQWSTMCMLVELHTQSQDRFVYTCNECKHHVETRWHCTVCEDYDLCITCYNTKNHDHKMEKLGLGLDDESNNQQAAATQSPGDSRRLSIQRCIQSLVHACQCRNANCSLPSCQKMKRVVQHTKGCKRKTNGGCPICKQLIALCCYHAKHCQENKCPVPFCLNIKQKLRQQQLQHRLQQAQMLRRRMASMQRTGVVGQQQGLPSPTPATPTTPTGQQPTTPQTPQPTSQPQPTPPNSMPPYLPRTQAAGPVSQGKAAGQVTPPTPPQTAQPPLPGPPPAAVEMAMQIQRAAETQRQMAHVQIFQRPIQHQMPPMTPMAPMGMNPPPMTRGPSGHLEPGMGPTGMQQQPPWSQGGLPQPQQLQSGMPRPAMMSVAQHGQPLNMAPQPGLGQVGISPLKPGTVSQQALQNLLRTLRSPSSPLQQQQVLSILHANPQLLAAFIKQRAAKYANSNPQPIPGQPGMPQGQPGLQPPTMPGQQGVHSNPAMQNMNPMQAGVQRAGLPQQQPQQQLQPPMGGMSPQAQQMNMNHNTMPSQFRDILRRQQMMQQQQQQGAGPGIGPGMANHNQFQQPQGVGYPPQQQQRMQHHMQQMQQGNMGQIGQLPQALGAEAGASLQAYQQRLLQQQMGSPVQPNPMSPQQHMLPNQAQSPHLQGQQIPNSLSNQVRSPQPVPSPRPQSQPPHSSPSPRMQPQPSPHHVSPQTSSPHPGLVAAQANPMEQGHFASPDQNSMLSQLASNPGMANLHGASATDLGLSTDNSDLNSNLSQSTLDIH
measured-parameter: Kd (nM)
Answers are plain numbers, in nM.

Inquiry: Which measured Kd value corresponds to "CC(=O)N1CCc2c(c(N3CCCc4cc(-c5cnn(C)c5)c(C(F)F)cc43)nn2C2CCOCC2)C1" ?
Reply text: 1.3

---

assay-method-text: Drug distribution in Sprague-Dawley rat plasma at 3 mg/kg, po measured at 24 hrs by LC-MS/MS analysis
Type: ADME, organism-based
measured-parameter: concentration at 24 h (ng/mL)
Numbers only, in ng/mL.

Inquiry: Which measured concentration at 24 h value corresponds to CC(=O)N1CCc2c(c(N3CCCc4cc(-c5cnn(C)c5)c(C(F)F)cc43)nn2[C@H]2CC[C@H](CN3Cc4cc5c(cc4C3)C(=O)N(C3CCC(=O)NC3=O)C5=O)CC2)C1 (stereo partly specified) ?
Reply text: 1.3

---

assay-method-text: Drug distribution in SCID mouse tumor at 0.3 mg/kg, po measured at 6 hrs by LC-MS/MS analysis
Type: ADME, organism-based, Neoplasm
experimental-setup: read-out: Ct
measured-parameter: concentration at 6 h (ng/g)
Give bare numbers, in ng/g.

Inquiry: Which measured concentration at 6 h value corresponds to CC(=O)N1CCc2c(c(N3CCCc4cc(-c5cnn(C)c5)c(C(F)F)cc43)nn2[C@H]2CC[C@H](CN3Cc4cc5c(cc4C3)C(=O)N(C3CCC(=O)NC3=O)C5=O)CC2)C1 (stereo partly specified) ?
Reply text: 14.4

---

assay-method-text: Drug distribution in Sprague-Dawley rat plasma at 10 mg/kg, po measured at 1 hr by LC-MS/MS analysis
Assay type: ADME, organism-based
measured-parameter: concentration at 1 h
State the value with its unit after it.

Inquiry: Which measured concentration at 1 h value corresponds to CC(=O)N1CCc2c(c(N3CCCc4cc(-c5cnn(C)c5)c(C(F)F)cc43)nn2[C@H]2CC[C@H](CN3Cc4cc5c(cc4C3)C(=O)N(C3CCC(=O)NC3=O)C5=O)CC2)C1 (stereo partly specified) ?
Reply text: 321 ng/mL

---

assay-method-text: Oral bioavailability in Sprague-Dawley rat at 3 mg/kg measured upto 24 hrs by LC/MS-MS analysis
Format: ADME, organism-based
experimental-setup: in vivo
measured-parameter: bioavailability (%)
One number for each entry, in %.

Inquiry: Which measured bioavailability value corresponds to CC(=O)N1CCc2c(c(N3CCCc4cc(-c5cnn(C)c5)c(C(F)F)cc43)nn2[C@H]2CC[C@H](CN3Cc4cc5c(cc4C3)C(=O)N(C3CCC(=O)NC3=O)C5=O)CC2)C1 (stereo partly specified) ?
Reply text: 67

---

assay-method-text: Metabolic stability in dog plasma assessed as half life measured upto 120 mins by LC-MS/MS analysis
Assay type: ADME, cell-free, Canis lupus familiaris
measured-parameter: half-life (h)
One number for each entry, in h.

Inquiry: Which measured half-life value corresponds to CC(=O)N1CCc2c(c(N3CCCc4cc(-c5cnn(C)c5)c(C(F)F)cc43)nn2[C@H]2CC[C@H](CN3Cc4cc5c(cc4C3)C(=O)N(C3CCC(=O)NC3=O)C5=O)CC2)C1 (stereo partly specified) ?
Reply text: 1.3

---

assay-method-text: Drug distribution in SCID mouse plasma at 3 mg/kg, po measured at 1 hr by LC-MS/MS analysis
Type: ADME, organism-based
measured-parameter: concentration at 1 h (ng/mL)
Numbers only, in ng/mL.

Inquiry: Which measured concentration at 1 h value corresponds to CC(=O)N1CCc2c(c(N3CCCc4cc(-c5cnn(C)c5)c(C(F)F)cc43)nn2[C@H]2CC[C@H](CN3Cc4cc5c(cc4C3)C(=O)N(C3CCC(=O)NC3=O)C5=O)CC2)C1 (stereo partly specified) ?
Reply text: 747

All values here come from ChEMBL document CHEMBL5543112.
